molecular target: Mouse inducible nitric oxide synthase (miNOS) (Mus musculus); construct: prepared from an extract of LPS-treated RAW 264.7 cells and partially purified by DEAE-Sepharose chromatography; endogenous in cells; host or cells: LPS-treated RAW 264.7 cells (mouse macrophage line); experiment: biochemical; conditions: conversion of [3H]-arginine to [3H]-citrulline; 37° C., 15 minutes; read-out: iNOS
Sequence (P29477 whole entry): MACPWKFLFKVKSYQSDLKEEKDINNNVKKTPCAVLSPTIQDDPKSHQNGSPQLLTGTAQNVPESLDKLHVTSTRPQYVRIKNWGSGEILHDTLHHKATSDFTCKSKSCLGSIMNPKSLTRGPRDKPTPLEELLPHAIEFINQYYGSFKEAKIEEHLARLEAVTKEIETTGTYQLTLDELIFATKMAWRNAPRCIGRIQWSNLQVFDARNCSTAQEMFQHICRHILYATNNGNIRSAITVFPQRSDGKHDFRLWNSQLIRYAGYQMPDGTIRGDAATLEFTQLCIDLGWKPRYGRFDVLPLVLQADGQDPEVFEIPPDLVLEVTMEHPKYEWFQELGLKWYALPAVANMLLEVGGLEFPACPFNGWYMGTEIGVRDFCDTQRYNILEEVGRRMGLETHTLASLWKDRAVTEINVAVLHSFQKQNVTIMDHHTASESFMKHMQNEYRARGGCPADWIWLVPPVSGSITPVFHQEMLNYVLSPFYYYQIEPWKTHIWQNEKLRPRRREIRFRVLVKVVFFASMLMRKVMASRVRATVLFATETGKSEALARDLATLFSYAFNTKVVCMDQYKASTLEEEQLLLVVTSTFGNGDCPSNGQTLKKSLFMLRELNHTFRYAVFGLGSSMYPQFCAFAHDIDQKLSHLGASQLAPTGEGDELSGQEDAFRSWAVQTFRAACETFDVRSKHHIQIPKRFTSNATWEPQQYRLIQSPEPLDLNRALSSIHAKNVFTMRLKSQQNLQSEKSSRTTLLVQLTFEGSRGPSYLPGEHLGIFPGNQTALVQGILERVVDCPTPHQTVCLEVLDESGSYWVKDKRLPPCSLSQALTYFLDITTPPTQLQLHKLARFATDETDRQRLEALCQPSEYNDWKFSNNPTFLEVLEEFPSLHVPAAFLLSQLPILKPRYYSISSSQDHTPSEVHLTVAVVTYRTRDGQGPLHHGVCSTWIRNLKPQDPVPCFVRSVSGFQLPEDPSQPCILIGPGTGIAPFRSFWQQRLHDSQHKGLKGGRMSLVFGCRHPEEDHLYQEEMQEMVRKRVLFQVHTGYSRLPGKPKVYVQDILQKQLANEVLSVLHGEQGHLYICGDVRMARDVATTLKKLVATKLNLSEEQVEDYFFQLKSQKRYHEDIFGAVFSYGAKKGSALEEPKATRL
Counter-ions that a name gives are not always drawn.
measured.quantity: log10(IC50) (log10 of the value in nM)
A difference of one corresponds to tenfold IC50; all values are log10 with IC50 in nM.

Problem: If you can, please state the reported log10(IC50) value of N=C1CCCCCCCN1 [Example 2, 2-Imino-octamethyleneimine hydrochloride] .
Solution: 3.34

Problem: If you can, please state the reported log10(IC50) value of N=C1NCCCC1O (stereo not drawn) [Example 11, 2-Imino-3-hydroxypiperidine acetate] .
Solution: 2.96

Problem: If you can, please state the reported log10(IC50) value of C=CCC1CCCCNC1=N (stereo not drawn) [Example 107, monohydrochloride] .
Solution: 3.58

Problem: If you can, please state the reported log10(IC50) value of Cl.N=C1CCCCC(C2CCCCC2)N1 (stereo not drawn) [Example 96, monohydrochloride] .
Solution: 3.97

Problem: If you can, please state the reported log10(IC50) value of CC1CCCN=C1N (stereo not drawn) [Example 9, 2-imino-3-methylpiperidine acetate] .
Solution: 3.18

Problem: If you can, please state the reported log10(IC50) value of NC1=NCCCCCC1 [Example 1, hydrochloride] .
Solution: 3.32

Problem: If you can, please state the reported log10(IC50) value of N=C1N[C@H]2[C@H](CS[C@H]2CCCCC(=O)O)N1 .
Solution: 4.60

Problem: If you can, please state the reported log10(IC50) value of CC1CCCC(=N)N1.Cl (stereo not drawn) [Example 8, 2-Imino-6-methylpiperidine hydrochloride] .
Solution: 2.20

Problem: If you can, please state the reported log10(IC50) value of N=C1CCCCN1 [Example 13, 2-Iminopiperidine hydrochloride] .
Solution: 2.78

The measurements presented in this section are drawn from patent US6448286B1.
